- ASSAYED SYSTEM: NAMPT (Homo sapiens, UniProt P43490)
- Construct: His tag; host or cells: E. coli
- Sequence (P43490 whole entry): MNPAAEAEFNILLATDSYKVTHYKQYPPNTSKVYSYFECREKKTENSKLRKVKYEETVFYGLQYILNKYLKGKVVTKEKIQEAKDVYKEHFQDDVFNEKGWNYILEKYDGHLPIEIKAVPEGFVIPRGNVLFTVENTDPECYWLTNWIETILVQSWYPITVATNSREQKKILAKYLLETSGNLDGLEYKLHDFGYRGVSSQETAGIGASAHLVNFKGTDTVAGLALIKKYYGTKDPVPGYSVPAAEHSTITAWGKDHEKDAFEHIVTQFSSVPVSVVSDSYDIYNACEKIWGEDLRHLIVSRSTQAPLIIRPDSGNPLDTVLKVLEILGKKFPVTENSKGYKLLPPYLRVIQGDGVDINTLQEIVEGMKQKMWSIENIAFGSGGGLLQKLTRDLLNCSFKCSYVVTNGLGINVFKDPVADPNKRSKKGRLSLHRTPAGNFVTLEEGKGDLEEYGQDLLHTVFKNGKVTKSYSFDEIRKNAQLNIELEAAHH
- METHOD DESCRIPTION: Biochemical inhibition assay: NAMPT enzymatic reaction, NMN quantified by mass spectrometry
- EXPERIMENTAL SETUP: NAMPT enzymatic assay; read-out: Biochem IC50
PROPERTY: log10(IC50) (log10 of the value in nM)
Each number you see is log10 of IC50, and the unit inside the log is nM.

In the examples that follow, each entry is paired with its recorded log10(IC50).
# CHEMICAL SMILES, PROPERTY, RECORDED NUMBER
rows = [
    ("CCNC(=O)c1ccc(S(=O)(=O)c2ccc(CNC(=O)c3cnc4[nH]ncc4c3)cc2)cc1", "log10(IC50)", 2.01),
    ("O=C(NCc1ccc(S(=O)(=O)c2cccc3c2oc2ccccc23)cc1)c1cnc2nccn2c1", "log10(IC50)", 0.23),
    ("O=C(NCc1ccc(S(=O)(=O)c2cc(Cl)ccc2OCC(F)F)cc1)c1ccc2nccn2c1", "log10(IC50)", 0.30),
    ("O=C(NCc1ccc(S(=O)(=O)c2cncc3ccccc23)cc1)c1ccc2nccn2c1", "log10(IC50)", 1.35),
    ("Cn1c(S(=O)(=O)c2ccc(CNC(=O)c3cnc4[nH]ncc4c3)cc2)cc2ccccc21", "log10(IC50)", 1.15),
]

Can you give me log10(IC50) for all of these, one by one?
1. CC(C)Oc1cccc(S(=O)(=O)c2ccc(CNC(=O)c3cnc4[nH]ncc4c3)cc2)c1
2. Cc1cncc(S(=O)(=O)c2ccc(CNC(=O)c3cnc4nccn4c3)cc2)c1
3. Cc1ccnc(S(=O)(=O)c2ccc(CNC(=O)c3cc4ccncc4o3)cc2)c1
4. O=C(NCc1ccc(S(=O)(=O)c2cccc(-c3ccc(F)c(F)c3)n2)cc1)c1cc2ccncc2s1
5. O=C(NCc1ccc(S(=O)(=O)c2ccccc2OC(F)(F)F)cc1)c1cc2ccncc2o1
6. O=C(NCc1ccc(S(=O)(=O)c2cccc(OC(F)F)c2)cc1)c1cnc2nccn2c1
7. O=C(NCc1ccc(S(=O)(=O)c2cccc3cccnc23)cc1)c1ccc2nccn2c1

**Result**
1. 1.66
2. 0.34
3. 1.28
4. 0.34
5. 0.93
6. 0.32
7. 0.99

* * *

- ASSAYED SYSTEM: NAMPT (Homo sapiens)
- Construct: His tag; host or cells: E. coli
- METHOD DESCRIPTION: Biochemical inhibition assay: NAMPT enzymatic reaction, NMN quantified by mass spectrometry
- EXPERIMENTAL SETUP: NAMPT enzymatic assay; read-out: Biochem IC50
Param label: returns Met when IC50 < 8 nM, returns Not met otherwise, including exact equality.

Below, 10 compounds whose answers are already recorded.
# CHEMICAL SMILES, GROUP
rows = [
    ("CCS(=O)(=O)c1cccc(S(=O)(=O)c2ccc(CNC(=O)c3ccc4nccn4c3)cc2)c1", "Not met"),
    ("O=C(NC1CCCC1)c1cccc(S(=O)(=O)c2ccc(CNC(=O)c3cc4ccncc4o3)cc2)c1", "Met"),
    ("O=C(NCc1ccc(S(=O)(=O)c2cc(F)cc(C(F)(F)F)c2)cc1)c1cnc2[nH]ncc2c1", "Not met"),
    ("O=C(NCc1ccc(S(=O)(=O)c2cc(O)ccc2OC(F)(F)F)cc1)c1cc2ccncc2o1", "Met"),
    ("O=C(NCc1ccc(S(=O)(=O)c2ccc(F)c(C(F)(F)F)c2)cc1)c1cc2cnccc2[nH]1", "Not met"),
    ("CNS(=O)(=O)c1ccccc1S(=O)(=O)c1ccc(CNC(=O)c2cnc3[nH]ncc3c2)cc1", "Not met"),
    ("O=C(NCc1ccc(S(=O)(=O)c2cccc3c2OCO3)cc1)c1ccc2nccn2c1", "Met"),
    ("Cc1nc(S(=O)(=O)c2ccc(CNC(=O)c3cnc4nccn4c3)cc2)cs1", "Not met"),
    ("O=C(NCc1ccc(S(=O)(=O)c2cncc(N3CCCC3)c2)cc1)c1cc2ccncc2o1", "Not met"),
    ("O=C(NCc1ccc(S(=O)(=O)c2cccc(N3CCCC3)c2)cc1)c1cc2ccncc2s1", "Met"),
]

Now look at this entry.
**Query** State whether 8 nM exceeds IC50 recorded for O=C(NCc1ccc(S(=O)(=O)c2ccc(N3CCOCC3)cc2)cc1)c1cc2ccncc2o1 .
**Result** Met
